Target: SARS-COV-2 RBD extracellular domain expressed with a C-terminal mouse IgG2a Fc (SARS-CoV-2)
Experiment: Biacore SPR, mAb captured on anti-hFc, 25 C
The entries below are paired with their reported koff.
Just the number please, in s⁻¹, no unit attached.

>  <binder>
mAb14247 (antibody, V domains shown) VH: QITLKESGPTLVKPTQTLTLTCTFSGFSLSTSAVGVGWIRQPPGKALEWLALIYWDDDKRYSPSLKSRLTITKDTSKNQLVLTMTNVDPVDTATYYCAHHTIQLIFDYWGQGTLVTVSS VL: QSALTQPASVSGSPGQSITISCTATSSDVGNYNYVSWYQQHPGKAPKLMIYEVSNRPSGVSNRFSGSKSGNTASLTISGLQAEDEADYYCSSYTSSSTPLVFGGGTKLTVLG

>  <quantityUnit>
s⁻¹

>  <koff>
0.000156

$$$$
>  <binder>
mAb15157 (antibody, V domains shown) VH: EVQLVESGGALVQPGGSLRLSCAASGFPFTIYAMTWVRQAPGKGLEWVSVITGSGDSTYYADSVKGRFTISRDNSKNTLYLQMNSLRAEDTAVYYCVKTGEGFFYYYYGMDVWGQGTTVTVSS VL: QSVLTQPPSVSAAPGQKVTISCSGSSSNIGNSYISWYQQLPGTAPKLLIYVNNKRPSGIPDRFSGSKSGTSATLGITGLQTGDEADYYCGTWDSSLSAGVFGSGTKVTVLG

>  <quantityUnit>
s⁻¹

>  <koff>
6.67e-05

$$$$
>  <binder>
mAb15160 (antibody, V domains shown) VH: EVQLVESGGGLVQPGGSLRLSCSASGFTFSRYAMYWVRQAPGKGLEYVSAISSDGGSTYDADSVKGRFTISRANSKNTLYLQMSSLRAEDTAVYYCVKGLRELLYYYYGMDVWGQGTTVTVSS VL: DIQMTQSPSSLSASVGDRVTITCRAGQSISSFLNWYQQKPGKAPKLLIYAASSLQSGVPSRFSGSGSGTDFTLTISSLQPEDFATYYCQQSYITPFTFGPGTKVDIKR

>  <quantityUnit>
s⁻¹

>  <koff>
1.05e-05

$$$$
>  <binder>
mAb14315 (antibody, V domains shown) VH: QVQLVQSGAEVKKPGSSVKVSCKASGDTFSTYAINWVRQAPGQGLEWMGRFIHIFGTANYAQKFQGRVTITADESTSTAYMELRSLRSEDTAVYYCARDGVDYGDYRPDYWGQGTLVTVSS VL: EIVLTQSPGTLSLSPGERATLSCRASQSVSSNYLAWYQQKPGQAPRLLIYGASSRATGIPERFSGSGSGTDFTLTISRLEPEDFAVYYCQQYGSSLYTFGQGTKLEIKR

>  <quantityUnit>
s⁻¹

>  <koff>
6.26e-05

$$$$
>  <binder>
mAb14289 (antibody, V domains shown) VH: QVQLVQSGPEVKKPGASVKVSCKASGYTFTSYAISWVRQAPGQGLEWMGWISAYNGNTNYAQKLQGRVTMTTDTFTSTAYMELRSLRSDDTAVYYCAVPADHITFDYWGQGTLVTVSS VL: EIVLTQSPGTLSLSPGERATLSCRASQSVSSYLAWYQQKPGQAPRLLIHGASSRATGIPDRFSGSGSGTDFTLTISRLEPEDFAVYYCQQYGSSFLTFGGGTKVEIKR

>  <quantityUnit>
s⁻¹

>  <koff>
8.95e-05

$$$$
>  <binder>
mAb14284 (antibody, V domains shown) VH: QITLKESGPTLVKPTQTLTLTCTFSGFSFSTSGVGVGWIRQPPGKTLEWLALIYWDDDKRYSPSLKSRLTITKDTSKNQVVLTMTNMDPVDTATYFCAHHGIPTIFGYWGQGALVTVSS VL: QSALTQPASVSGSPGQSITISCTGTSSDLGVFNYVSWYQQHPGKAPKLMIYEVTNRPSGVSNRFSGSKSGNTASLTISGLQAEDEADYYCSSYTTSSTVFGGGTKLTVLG

>  <quantityUnit>
s⁻¹

>  <koff>
2.12e-05

$$$$
>  <binder>
mAb14294 (antibody, V domains shown) VH: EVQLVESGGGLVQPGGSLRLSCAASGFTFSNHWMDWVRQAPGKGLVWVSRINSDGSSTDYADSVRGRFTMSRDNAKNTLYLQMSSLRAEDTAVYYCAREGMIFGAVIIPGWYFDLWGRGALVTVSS VL: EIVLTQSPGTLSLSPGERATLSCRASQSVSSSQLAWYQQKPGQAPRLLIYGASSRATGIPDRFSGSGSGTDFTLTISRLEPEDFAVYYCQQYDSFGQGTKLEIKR

>  <quantityUnit>
s⁻¹

>  <koff>
2.68e-05

$$$$

Then this binder:
Item: mAb15162 (antibody, V domains shown) VH: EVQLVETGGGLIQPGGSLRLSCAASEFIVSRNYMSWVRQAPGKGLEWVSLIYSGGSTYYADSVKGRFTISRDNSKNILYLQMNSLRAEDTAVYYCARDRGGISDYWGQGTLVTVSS VL: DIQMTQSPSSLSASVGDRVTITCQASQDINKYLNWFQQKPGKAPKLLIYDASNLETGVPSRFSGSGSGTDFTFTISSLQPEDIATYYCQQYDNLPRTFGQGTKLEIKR | koff: 0.00023
